Field: pIC50. Provide a value for each of the compounds that follow.
- target_system: human TRPV4 (Homo sapiens)
- Construct: host or cells: tetracycline-inducible Flp-In T-REx 293 cells
- Sequence (Q9HBA0 whole entry): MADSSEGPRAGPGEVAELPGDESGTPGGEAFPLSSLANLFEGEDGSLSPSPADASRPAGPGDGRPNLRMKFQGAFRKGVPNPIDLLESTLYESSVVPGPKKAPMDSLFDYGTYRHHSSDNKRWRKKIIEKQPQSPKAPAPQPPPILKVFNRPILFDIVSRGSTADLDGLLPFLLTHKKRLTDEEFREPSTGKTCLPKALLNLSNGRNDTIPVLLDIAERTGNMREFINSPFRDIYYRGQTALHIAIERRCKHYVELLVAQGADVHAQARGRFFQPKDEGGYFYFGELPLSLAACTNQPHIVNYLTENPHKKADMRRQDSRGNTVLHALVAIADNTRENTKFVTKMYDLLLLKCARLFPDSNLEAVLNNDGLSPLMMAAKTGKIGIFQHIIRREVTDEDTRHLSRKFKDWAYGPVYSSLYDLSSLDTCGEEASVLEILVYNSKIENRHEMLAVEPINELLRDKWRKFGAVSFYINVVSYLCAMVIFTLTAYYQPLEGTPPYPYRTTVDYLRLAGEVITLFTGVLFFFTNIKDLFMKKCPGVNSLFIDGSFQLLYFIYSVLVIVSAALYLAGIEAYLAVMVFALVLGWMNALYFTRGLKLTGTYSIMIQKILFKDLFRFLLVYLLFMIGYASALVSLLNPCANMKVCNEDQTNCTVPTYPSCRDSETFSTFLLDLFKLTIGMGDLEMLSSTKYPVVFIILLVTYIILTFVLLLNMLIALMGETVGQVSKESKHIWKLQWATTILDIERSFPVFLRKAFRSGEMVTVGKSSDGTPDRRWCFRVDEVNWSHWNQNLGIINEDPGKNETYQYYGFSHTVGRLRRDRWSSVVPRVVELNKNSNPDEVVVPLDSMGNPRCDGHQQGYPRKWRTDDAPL
- test_description: Hypotonicity-induced Ca2+ influx (Fluo-4, FDSS)
- Format: cell-based
- measurement_parameters: Flp-In T-REx 293 cells stably expressing human TRPV4, compounds listed by potency bin (<10 nM Tables 96-1/96-2, <3 nM Table 97)
pIC50: −log10 of the molar value.

// field: pIC50; key: CC(C)c1cncc(C2(c3nc4c(c(=O)[nH]3)CN(C(=O)C(F)(F)c3cccc(C(F)(F)F)c3)CC4)CC2)c1 ; value = > 8.00

Short answer for O=C(C(O)c1cccc(-c2cccc(OC(F)(F)F)c2)c1F)N1CCc2nc(C3(c4ccccc4)CC3)[nH]c(=O)c2C1 (stereo not drawn) : pIC50 was > 8.00

Sure, the documented pIC50 for O=C(C(O)c1cccc(C(F)(F)F)c1F)N1CCc2nc(C3(c4cncc(-c5ccccc5)c4)CC3)[nH]c(=O)c2C1 (stereo not drawn) is > 8.00

Data point: O=C(Cc1cccc(-c2ccc(C(F)(F)F)cc2)c1)N1CCCc2nc(C3(c4ccccc4)CC3)[nH]c(=O)c2C1 ; pIC50 = > 8.00

Just so you know, measured pIC50 for CC(C)(C)c1cccc(-c2cccc([C@@H](O)C(=O)N3CCCc4nc(C5(c6cccc(C7CCCCC7)c6)CC5)[nH]c(=O)c4C3)c2)c1 came out at > 8.00

Measured pIC50 of O=C([C@H](O)c1cccc(Cl)c1)N1CCc2nc(C3(c4cncc(-c5ccccc5)c4)CC3)[nH]c(=O)c2C1 : > 8.52

For this compound ( COc1cc(-c2cccc(C3(c4nc5c(c(=O)[nH]4)CN(C(=O)[C@H](O)c4cccc(C(F)(F)F)c4)CCC5)CC3)c2)ccn1 ), measured pIC50 is > 8.52

// pIC50 lookup, compound = CC(C)Oc1cccc(-c2cccc([C@@H](O)C(=O)N3CCCc4nc(C5(c6ccccc6)CC5)[nH]c(=O)c4C3)c2)c1 , result: > 8.52

Note to self: pIC50 recorded for O=C([C@H](O)c1cccc(-c2ccc(Cl)c(C(F)(F)F)c2)c1)N1CCCc2nc(C3(c4cccc(Cl)c4)CC3)[nH]c(=O)c2C1 was > 8.00

Given item O=C([C@H](O)c1cccc(C(F)(F)F)c1)N1CCCc2nc(C3(c4cccc(-c5ccc(N6CCC(c7ccccc7)CC6)nc5)c4)CC3)[nH]c(=O)c2C1 , the value recorded as its pIC50 is > 8.00

Measured pIC50, O=C([C@H](O)c1cccc(-c2ccc(Cl)c(C(F)(F)F)c2)c1)N1CCCc2nc(C3(c4ccccc4)CC3)[nH]c(=O)c2C1 : > 8.00

Looking up O=C([C@H](O)c1cccc(C(F)(F)F)c1)N1CCCc2nc(C3(c4cccc(-c5ccnc(C(F)(F)F)c5)c4)CC3)[nH]c(=O)c2C1 , I see its pIC50 listed as > 8.52

What the record says about O=C(C(O)c1cccc(Oc2cccc(C(F)(F)F)c2)c1)N1CCCc2nc(C3(c4cccc(Cl)c4)CC3)[nH]c(=O)c2C1 (stereo not drawn) : pIC50 is > 8.00

// field: pIC50; key: O=C(Cc1cccc(-c2cccc(C(F)(F)F)c2)c1)N1CCCc2nc(C3(c4cccc(C5=CCCCC5)c4)CC3)[nH]c(=O)c2C1 ; value = > 8.00

// field: pIC50; key: O=C([C@H](O)c1cccc(-c2cc(Cl)ccc2Cl)c1)N1CCCc2nc(C3(c4ccccc4)CC3)[nH]c(=O)c2C1 ; value = > 8.00

Entry O=C(Cc1cccc(-c2cccc(OC(F)(F)F)c2)c1)N1CCCc2nc(C3(c4cccc(Cl)c4)CC3)[nH]c(=O)c2C1 — recorded pIC50 = > 8.00

# pIC50 (compound: O=C(N1CCCc2nc(C3(c4cccc(Cl)c4)CC3)[nH]c(=O)c2C1)C(F)(F)c1cccc(C(F)(F)F)c1 ) is > 8.52

Note to self: pIC50 recorded for O=C(C(O)c1cccc(-c2ccc(Cl)c(C(F)(F)F)c2)c1)N1CCc2nc(C3(c4ccccc4)CC3)[nH]c(=O)c2C1 (stereo not drawn) was > 8.00

The compound O=C([C@H](O)c1cccc(Cl)c1)N1CCCc2nc(C3(c4cc(-c5cnsc5)cs4)CC3)[nH]c(=O)c2C1 showed pIC50 equal to > 8.00

Form: compound = O=C([C@H](O)c1cccc(C(F)(F)F)c1)N1CCCc2nc(C3(c4cccc(-c5ccc6sccc6c5)c4)CC3)[nH]c(=O)c2C1 ; pIC50 = > 8.00

The compound identified as O=C([C@H](O)c1cccc(C(F)(F)F)c1)N1CCCc2nc(C3(c4cncc(C5CCCCC5)c4)CC3)[nH]c(=O)c2C1 registered its pIC50 at > 8.52

Entry under test: CC(C)c1csc(C2(c3nc4c(c(=O)[nH]3)CN(C(=O)[C@H](O)c3cccc(Cl)c3)CCC4)CC2)c1 . Its pIC50 was > 8.52

O=C(C(O)c1cccc(Cl)c1F)N1CCCc2nc(C3(c4cccc(Cl)c4)CC3)[nH]c(=O)c2C1 (stereo not drawn) yielded pIC50 of > 8.52

Recorded pIC50 (compound O=C([C@H](O)c1cccc(-c2cccc(OC(F)(F)F)c2)c1)N1CCCc2nc(C3(c4cc(C5CCCCC5)cs4)CC3)[nH]c(=O)c2C1 ): > 8.00

// field: pIC50; key: CC(C)c1cc(C2(c3nc4c(c(=O)[nH]3)CN(C(=O)[C@H](O)c3cccc(C(F)(F)F)c3)CCC4)CC2)ccn1 ; value = > 8.00

Summary for this compound, N#Cc1cccc(-c2cccc(C3(c4nc5c(c(=O)[nH]4)CN(C(=O)[C@H](O)c4cccc(Cl)c4)CCC5)CC3)c2)c1 : pIC50 is > 8.52

Record summary for CC(C)c1cccc(C2(c3nc4c(c(=O)[nH]3)CN(C(=O)[C@H](O)c3cccc(-c5cccc(F)c5)c3)CCC4)CC2)c1 : reported pIC50 = > 8.00

###

I'd appreciate it if you could supply IC50 values for the items below.
- target_system: human TRPV4 (Homo sapiens)
- Construct: host or cells: tetracycline-inducible Flp-In T-REx 293 cells
- test_description: Hypotonicity-induced Ca2+ influx (Fluo-4, FDSS)
- Assay type: cell-based
- measurement_parameters: Flp-In T-REx 293 cells stably expressing human TRPV4, compounds listed by potency bin (<10 nM Tables 96-1/96-2, <3 nM Table 97)

Assay human TRPV4 (Homo sapiens), sample O=C([C@H](O)c1cccc(-c2cccc(C(F)(F)F)c2)c1)N1CCCc2nc(C3(c4cc(C5CCCCC5)cs4)CC3)[nH]c(=O)c2C1 , IC50 read: < 10 nM

// returns IC50 for O=C(C(O)c1cccc(-c2cccc(C(F)(F)F)c2)n1)N1CCc2nc(C3(c4ccccc4)CC3)[nH]c(=O)c2C1 (stereo not shown) with human TRPV4 (Homo sapiens); value = < 10 nM

Measured IC50 (human TRPV4 (Homo sapiens)), entry O=C([C@H](O)c1cccc(C(F)(F)F)c1)N1CCCc2nc(C3(c4cccc(C5=CCN(S(=O)(=O)C6CCCCC6)CC5)c4)CC3)[nH]c(=O)c2C1 : < 10 nM

So the reported IC50 for O=C([C@H](O)c1cccc(-c2ccc(F)c(Cl)c2)c1)N1CCCc2nc(C3(c4cccc(Cl)c4)CC3)[nH]c(=O)c2C1 , on human TRPV4 (Homo sapiens), turned out to be < 10 nM

The compound O=C([C@H](O)c1cccc(-c2cccc(Cl)c2Cl)c1)N1CCCc2nc(C3(c4ccccc4)CC3)[nH]c(=O)c2C1 on human TRPV4 (Homo sapiens): IC50 was < 10 nM

Tested on human TRPV4 (Homo sapiens): N#Cc1ccc(-c2cccc(C3(c4nc5c(c(=O)[nH]4)CN(C(=O)[C@H](O)c4cccc(C(F)(F)F)c4)CCC5)CC3)c2)cn1 . Observed IC50: < 3 nM

Bench note, human TRPV4 (Homo sapiens): N#Cc1ccc(-c2cccc(C3(c4nc5c(c(=O)[nH]4)CN(C(=O)[C@H](O)c4cccc(C(F)(F)F)c4)CCC5)CC3)c2)cc1F , IC50 reads < 10 nM

Fill in: human TRPV4 (Homo sapiens) IC50 for O=C([C@H](O)c1cccc(-c2cc(Cl)cc(C(F)(F)F)c2)c1)N1CCCc2nc(C3(c4ccccc4)CC3)[nH]c(=O)c2C1 = < 3 nM

Param item: COCCOc1cccc(-c2cccc(C3(c4nc5c(c(=O)[nH]4)CN(C(=O)[C@H](O)c4cccc(C(F)(F)F)c4)CCC5)CC3)c2)c1 ; param system: human TRPV4 (Homo sapiens); output IC50: < 3 nM

I looked up Cc1ccc(-c2cccc([C@@H](O)C(=O)N3CCCc4nc(C5(c6ccccc6)CC5)[nH]c(=O)c4C3)c2)cc1C and its IC50 for human TRPV4 (Homo sapiens) was < 10 nM
